Items are presented alongside their recorded melting point.

// below: answered compounds
CCOc1ccc(C2=NN(C3CCN(C(=O)NC(C)(C)C)CC3)C(=O)[C@@H]3CC=CC[C@H]23)cc1OCC	145 to 148 °C
CC12CC3CC(C1)CC(CC(O)C(c1cccc(Cl)c1)n1ccnc1)(C3)C2 (configuration not stated)	126 °C
O=C(O)CC1(CCCCCCCCC2(CC(=O)O)CC2)CC1	101 °C
CC(=N)NS(=O)(=O)C=Cc1ccc(Cl)c(Cl)c1	198 °C
CC(C)(C)[C@H]1CC[C@H](Nc2ncc(CCc3cccnc3)c3ccccc23)CC1	124 to 125 °C
CCOc1ccc(C(=O)CN2CCOCC2)cc1-c1nc2c(C)cccc2c(=O)[nH]1	172 to 173 °C
O=C(OC1C2CN(Cc3ccccc3)CC1CN(C(=O)c1ccc(Cl)cc1)C2)c1ccccc1 (configuration not stated)	165 °C
CN(C)CCc1cccc(OCCCNc2nc(N)nn2C)c1	81 to 82 °C
COc1ccc(/C=C(\C#N)c2cccc(Cl)c2)cc1OC1CCCC1	98 to 100 °C
CCCc1nn(-c2ccc(C(F)(F)F)cn2)cc1CCCOc1ccc(OC)c(CC(=O)O)c1	135 to 136 °C

Tell me melting point reported for `O=S(=O)(c1cccc2cccnc12)N1CCN(CCc2ccc(F)cc2)CC1`
141 °C

Tell me melting point reported for `Cc1cc(C)cc(CCCn2c(=O)[nH]c3cc(Cl)cc(Cl)c3c2=O)c1`
205 to 208 °C

Tell me melting point reported for `CCOc1nnc2n1C=Cc1ccccc1C2`
143 to 144 °C

Tell me melting point reported for `CCCC(=O)COS(=O)(=O)c1c(C)cc(C)c(C)c1C`
49 to 50 °C

Tell me melting point reported for `CNC(=C[N+](=O)[O-])NCCOc1cccc(CN(C)C)c1`
130 to 131 °C

====

Items are presented alongside their recorded melting point.

// below: answered molecules
CCN1CCN(C(C(=O)N(C)CCO)c2ccc(Nc3nc(-c4cccc(NC(=O)c5cc6c(s5)CCCCC6)c4C)cn(C)c3=O)cc2)CC1 (stereo not given)	163 to 165 °C
CCN(CC)C(=O)c1sc(Cl)nc1C(F)(F)F	40 to 41 °C

Tell me melting point reported for `O=C(O)Cc1c(-c2ccc(Cl)cc2)nn(-c2ccccc2)c1-c1ccc(Cl)cc1`
204 to 206 °C

Tell me melting point reported for `NC(=O)CC(CC(N)=O)c1ccccc1Br`
168 to 170 °C

Tell me melting point reported for `Cc1nc(-c2ccc(C#N)cc2)sc1C(=O)N[C@H](C)[C@](O)(Cn1ccnc1)c1ccc(F)cc1F`
126 to 128 °C

====

Items are presented alongside their recorded melting point.

// below: answered molecules
CSc1nn2c(N)cc(C)nc2c1S(=O)(=O)c1ccc(I)cc1	> 230 °C
c1ccc(N2c3ccccc3Sc3ccccc32)nc1	107 to 109 °C
Cc1ccc(N(C=C(C#N)C#N)N=C(C#N)C#N)cc1C	162 to 163 °C

Tell me melting point reported for NC(=O)N1CCN2c3ccccc3Cn3cccc3C2C1 (centres undefined)
175 to 177 °C

Tell me melting point reported for `CCn1c(=O)c2cccnc2n(-c2cccc([N+](=O)[O-])c2)c1=O`
210 to 211 °C

Tell me melting point reported for `OCc1cccc(-c2coc(-c3cn([C@H]4CN5CCC4CC5)nn3)c2)c1`
212 °C

Tell me melting point reported for `O=c1[nH]c(=O)n(CCCN2CCC(OC(c3ccccc3)c3ccccc3)CC2)c2ccccc12`
149 to 151 °C

Tell me melting point reported for `CC(C)(NC(=O)CCn1cnc(C=O)c1)c1ccc(Cl)c(Cl)c1`
161 to 163 °C

====

quantity-measured: melting point

COC(=O)CCN1C[C@H]2Cc3ccccc3[C@H](c3ccccc3)[C@H]2C1 (racemic)	75 to 76 °C
CCOC(=O)CNC(=O)c1cc(F)c(F)cc1N	147 °C
Cc1ccccc1/C=C/c1c(C(C)C)nc(C(C)C)c(CO)c1-c1ccc(F)cc1	108 to 111 °C
CN1CCN(c2ccc(N)cc2C(F)(F)F)CC1	121 to 123 °C
CC(C)(C)c1cc(CCC(=O)O)cc(-n2nc3ccc(Sc4ccccc4)cc3n2)c1O	154 to 156 °C
O=C(C=Cc1ccc(COc2ccccc2)cc1)NC(Cc1ccccc1)C(=O)O (stereo not given)	205 °C
O=Cc1c2ccccc2c(Cl)c2cc(Cl)ccc12	174 to 175 °C
O=C(Cc1cc(OC(=O)c2ccccc2)no1)OC(c1ccccc1)c1ccccc1	95 to 96 °C
CCOc1cc2ncc(C#N)c(NCc3cccc(Br)c3)c2cc1OCC	156 to 159 °C
COc1ccc(NCCNC(=O)c2ccc(OCC=C(C)CCC=C(C)C)cc2)cn1	97.9 to 99.3 °C

Tell me melting point reported for `CCCCNC(=O)c1cc(-c2csc(-c3ccc([N+](=O)[O-])cc3)n2)n(CC2CCCCC2)c1C`
184 to 187 °C

Tell me melting point reported for `CCN1Cc2ccccc2C(=O)c2cc(CC(=O)OC)ccc21`
116 to 119 °C

Tell me melting point reported for CC(=O)NCC1CN(c2cc(F)c(N3CCN(C(=O)OC(C)(C)C)CC3)c(F)c2)C(=O)O1 (stereo not given)
177 to 179 °C

Tell me melting point reported for `CC(=O)NCc1nc(-c2csc(N=C(N)N)n2)cs1`
255 to 256 °C

Tell me melting point reported for `COc1nc(NC(=O)NS(=O)(=O)c2ccccc2S(C)(=O)=O)nc(N(C)C)n1`
192 to 195 °C

Tell me melting point reported for `CCOC(=O)c1cc(-c2cccc(C(F)(F)F)c2)c(OCCO)c(-c2cccc(C(F)(F)F)c2)c1`
154 to 158 °C

Tell me melting point reported for `CN(Cc1ccc(F)cc1)C1CCN(c2ccc([N+](=O)[O-])cc2)CC1`
89 to 90 °C

Tell me melting point reported for `NC(=O)c1nc2n(n1)-c1ccc(Cl)cc1C(c1ccccc1)=NC2`
252 to 254 °C

Tell me melting point reported for CC(=O)c1ccc2cc(C(C)Br)ccc2c1 (stereo not given)
64 to 66 °C

Tell me melting point reported for `COC(=O)c1ccc(-n2ccc(C)n2)cc1C(F)(F)F`
59 to 61 °C

Tell me melting point reported for `COc1ccc(Cc2ccc3[nH]c(=S)[nH]c3c2)cc1OC`
248 to 250 °C

Tell me melting point reported for O=C(SCCC(=O)N1C(C(=O)NO)CSC1c1ccccc1O)c1ccccc1 (stereo not given)
105 to 110 °C

Tell me melting point reported for `O=c1c2c(Cl)cc(Cl)cc2n(Cc2ccccc2)c(=O)n1-c1ccccc1`
169 to 174 °C

Tell me melting point reported for COC(=O)N1Cc2c(O)noc2C(C)C1 (racemic)
128 to 129 °C

====

Items are presented alongside their recorded melting point.

// below: answered compounds
CC(C)(C)OC(=O)NCCSc1cc(-c2ccccc2)on1	87 to 88 °C
CC(C)(C)NS(=O)(=O)c1ccsc1C1=CC(=O)CCC1	157 to 158 °C
CC1CC(C)CN(C(=O)c2ccc([N+](=O)[O-])cc2)C1 (stereo unspecified)	120 to 125 °C
Cc1nc(-c2ccc(C=CC3CN4CCC3CC4)cc2)no1 (stereo unspecified)	93 to 97 °C
CSc1ccc(C(=O)C=Cc2ccncc2)cc1	133 to 134 °C

Tell me melting point reported for `C=CCOc1nc(Cl)nc2nc[nH]c12`
208 to 209 °C

====

Items are presented alongside their recorded melting point.

Tell me melting point reported for `N#Cc1cccc(NC(=O)CN2CCC(Cc3ccc(F)cc3)CC2)c1`
101 to 103 °C

Tell me melting point reported for `NC(=O)Cn1c(-c2ccccn2)nc2cccnc21`
275 to 278 °C

Tell me melting point reported for `COc1cc2ccc(C=O)cc2cc1OC`
87 to 88 °C

Tell me melting point reported for `Clc1nc(-c2cccnc2)sc1Br`
114 to 115 °C

Tell me melting point reported for `Cc1oc(-c2ccccc2)nc1COc1ccc(COc2ccc(O)cc2CC(=O)O)cc1`
194 to 195 °C

Tell me melting point reported for `COc1ccc(C2=C(OC(C)=O)C(=O)Nc3ccc(Cl)cc3S2)cc1`
236 to 238 °C

====

Items are presented alongside their recorded melting point.

// below: answered compounds
CC(C)(C)ON=C1CCC(NC(=O)Oc2ccc([N+](=O)[O-])cc2)CC1 (stereo not given)	132 °C
C[C@@H](N1CC(=O)N(c2ccc(F)cc2F)C1=O)[C@@]1(c2ccc(F)cc2F)CO1	124 to 125 °C
C[C@H](NC(=O)Cc1cc(F)cc(F)c1)C(=O)N[C@@H]1C(=O)Nc2ccccc2S[C@@H]1c1ccc(Br)s1	139 to 140 °C
CCc1cc2c(cc1CC)C(=O)C(O)=CC2=O	105 to 109 °C

Tell me melting point reported for O=C(Nc1cccc(S(=O)(=O)N2CCCC2CO)c1)c1cnn2c(C3CC3)cc(-c3ccc(Cl)cc3)nc12 (stereo not given)
180 to 182 °C
